Attribution: PubChem BioAssay AID1159580

I'd be grateful if you could share measured normalized growth for these entries.
PROTOCOL DETAILS: chemical genetic growth profiling, strain panel (AID 1159580);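 further: tested at 20 µM; growth read once vehicle control cultures reached saturation at 30 °C; 1 = growth at the plate median or of vehicle wells; lower values mean less growth of the strain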
CONDITION NOTES: S. cerevisiae deletion strains, growth OD, locus YPL209C, strain IPL1, hits give low values
Among all 5,500 compounds or so, about 2,000 (36%) were called active. Another 18% or so got no clear call; they are omitted. The list shows a part of the results.

Field: example entries. Status: answers known.
                                   compound        data_value
0  O=C(CCn1c(=O)oc2ccccc21)Sc1ccc(C(F)(F)F)cc1  0.971 (inactive)
1  O=[N+]([O-])c1ccc(-c2csc(Nc3ccncc3)n2)cc1  0.991 (inactive)
2  Cc1onc(-c2ccccc2)c1C(=O)Sc1ccc(C(F)(F)F)cn1  0.961 (inactive)
3            O=C(Nc1ccc(F)c(Cl)c1)c1ccccc1O    0.895 (active)
4   O=C(CCn1c(=O)oc2ccccc21)Sc1ccc(Cl)cc1Cl  0.922 (inactive)
5  COc1ccc(CC2CCC(=NOC(=O)c3ccc(C(C)(C)C)cc3)CC2)cc1 (centres undefined)  0.988 (inactive)

Field: normalized growth. Fill in for each record below.
1. O=C(NNc1ccc(Cl)cc1)c1ccc(F)cc1F
2. COc1ccc(CC2CCC(=NOC(=O)c3c(Cl)cccc3Cl)CC2)cc1 (centres undefined)
3. Cc1c(S(=O)(=O)c2ccc(Cl)cc2)csc1C(=O)NNc1cccc(Cl)c1

["0.941 (inactive)", "1.04 (inactive)", "0.955 (inactive)"]

* * *

Would you kindly list normalized growth for each of these molecules?
PROTOCOL DETAILS: chemical genetic growth profiling, strain panel (AID 1159580)
CONDITION NOTES: S. cerevisiae deletion strains, growth OD, locus YCL011C, strain gbp2, hits give low values
Screen size: about 5,500 compounds; about 2,000 (36%) were called active. About 18% were inconclusive and are not listed. The list shows a part of the results.
One number for each entry.

For orientation, consider the following solved cases.
In [3]: df
Out[3]:
                                   molecule   measurement_type  data_value
0                 Cc1cc(=O)oc2c(O)c(O)ccc12  normalized growth       0.958
1  CC(C)CCCC(C)C1CCC2C3CC[C@H]4CCCC[C@]4(C)C3CC[C@]12C (stereo partly specified)  normalized growth        1.02

Give me normalized growth for each of these molecules, listed below.
1. CC1=C2[C@H]3OC(=O)[C@@H](C)[C@@H]3CC[C@@]2(C)C=CC1=O
2. CC(CCC(=O)O)[C@H]1CCC2C3CC[C@@H]4C[C@H](O)CC[C@]4(C)C3CC[C@@]21C (stereo partly specified)
3. COc1ccc(C(=O)N2CCCC2=O)cc1
4. N[C@H](Cc1ccccc1)C(=O)O
5. COc1c2ccoc2nc2c(OC)c(OCC(O)C(C)(C)O)ccc12 (stereo unspecified)
6. COc1cc([C@H]2Oc3cc([C@H]4Oc5cc(O)cc(O)c5C(=O)[C@@H]4O)ccc3O[C@@H]2CO)ccc1O
7. N[C@H](Cc1cc(I)c(Oc2ccc(O)c(I)c2)c(I)c1)C(=O)O
8. C/C=C/C(=O)N(CC)c1ccccc1C

1. 0.979
2. 0.974
3. 0.946
4. 1
5. 1.03
6. 1
7. 1
8. 0.997

I would be grateful if you could share the reported normalized growth for CC(CCC(=O)O)[C@H]1CCC2C3CC[C@@H]4CCCC[C@]4(C)C3CC[C@@]21C (stereo partly specified) .
1.02

* * *

Task for the reader: assign each of the following molecules its reported normalized growth.
PROTOCOL DETAILS: chemical genetic growth profiling, strain panel (AID 1159580);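 further: tested at 20 µM; growth read once vehicle control cultures reached saturation at 30 °C; 1 = growth at the plate median or of vehicle wells; lower values mean less growth of the strain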
CONDITION NOTES: S. cerevisiae deletion strains, growth OD, locus YCL011C, strain gbp2, hits give low values
Out of some 5,500 compounds screened, about 2,000 (36%) were called active. Roughly 18% stayed inconclusive and do not appear here. The list shows a part of the results.
Answers are plain numbers.

Below are worked cases with known answers.
>>> df
                                   molecule   measurement_type  data_value
0               C[C@@H](N)[C@@H](O)c1ccccc1  normalized growth       0.994
1  CCCCS(=N)(=O)CCC(N)C(=O)O (stereo not given)  normalized growth       0.988
2  CC(=O)OCC(=O)[C@@]1(O)[C@H](OC(C)=O)CC2C3CCC4=CC(=O)C=C[C@]4(C)[C@@]3(F)[C@@H](O)C[C@@]21C (stereo not given in full)  normalized growth       0.947
3  COc1cc(C)c(C(=O)Oc2cc(C)c(C(=O)O)c(O)c2C)c(OC)c1C  normalized growth       0.968
4   CCCC(C(=O)OCCN(CC)CC)(c1ccccc1)c1ccccc1  normalized growth        1.01

Take each entry in turn and give its normalized growth.
1. Cc1cc(O)c(C=O)c2c1C(=O)Oc1c(COC(=O)/C=C/C(=O)O)c(O)c(C(=O)O)c(C)c1O2
2. CCCC(CCC)C(=O)O
3. C=C[C@H]1CN2CC[C@H]1C[C@@H]2[C@H](O)c1ccnc2ccccc12
4. S=P(N1CC1)(N1CC1)N1CC1
5. C[C@@H]1CC2C3CCC4=CC(=O)C=C[C@]4(C)[C@@]3(F)[C@@H](O)C[C@]2(C)[C@H]1C(=O)CO (stereo not given in full)

1. 0.974
2. 1.01
3. 0.988
4. 1.01
5. 0.993

* * *

PROTOCOL DETAILS: chemical genetic growth profiling, strain panel (AID 1159580);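 further: tested at 20 µM; growth read once vehicle control cultures reached saturation at 30 °C; 1 = growth at the plate median or of vehicle wells; lower values mean less growth of the strain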
CONDITION NOTES: S. cerevisiae deletion strains, growth OD, locus YHR200W, strain rpn10
Screen size: about 5,500 compounds; about 2,000 (36%) were called active. Another 18% or so got no clear call; they are omitted. No stated cut-off is given here; in the data, active means normalized growth mostly below about 0.91 (no sharp cut-off); inconclusive means no clear call, values can overlap the other calls; inactive means mostly above about 0.92. This is one part of the list.
A correct response names exactly one class from yes for active, no for inactive

# example entries with known answers
COMPOUND	CLASS ASSIGNMENT
O=c1cc(-c2ccccc2)oc2c(O)c(O)ccc12	no
O=C(O)Cc1cc(I)c(Oc2cc(I)c(O)c(I)c2)c(I)c1	no
N[C@@H](Cc1cc(I)c(Oc2ccc(O)c(I)c2)c(I)c1)C(=O)O	no
CCN(CC)CCOC(=O)C(c1ccccc1)c1ccccc1	no
COc1c(Cl)ccc(Cl)c1C(=O)O	no
CC1(C)C(=O)C=C[C@@]2(C)C1CC(=O)[C@@]1(C)C3=CC(=O)O[C@@H](c4ccoc4)[C@]3(C)CCC12 (stereo partly specified)	no
Cc1nc2sccn2c(=O)c1CCN1CCC(=C(c2ccc(F)cc2)c2ccc(F)cc2)CC1	yes
Cc1nc2ccccn2c(=O)c1CCN1CCC(C(=O)c2ccc(F)cc2)CC1	no

For CC(=O)O[C@H]1CC[C@]2(C)C3C(=O)[C@@H](OC(C)=O)[C@@]4(C)C(C[C@@H]5O[C@]6(CCC(C)CO6)[C@@H](C)[C@@H]54)C3CC[C@H]2C1 (stereo partly specified) , what call appears in the results of this test?
no

Outcome logged for C[C@H](N)[C@H](O)c1cccc(O)c1 in this assay:
no

What is the recorded call for this compound in the test? COc1cc2c(cc1-c1cc3cc4ccoc4cc3oc1=O)OCO2
no

* * *

I'd appreciate it if you could supply normalized growth values for the items below.
PROTOCOL DETAILS: chemical genetic growth profiling, strain panel (AID 1159580);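 further: tested at 20 µM; growth read once vehicle control cultures reached saturation at 30 °C; 1 = growth at the plate median or of vehicle wells; lower values mean less growth of the strain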
CONDITION NOTES: S. cerevisiae deletion strains, growth OD, strain TSCII, hits give low values
Screen size: about 5,500 compounds; about 2,000 (36%) were called active. Another 18% or so got no clear call; they are omitted. The list shows a part of the results.
Give bare numbers.

Example results:
                                   compound  data_value
0  O=C1CSC(c2ccc(C(F)(F)F)cc2)N1c1ccc(C(F)(F)F)cc1 (stereo not drawn)       0.999
1        N#Cc1ccc(NC(=O)Nc2cccc3ccccc23)cc1       0.969
2  O=C(Nc1ccc(Cl)cc1)O/N=C\c1ccn(-c2ccccc2)n1        0.95
3             O=C(Nc1cccc2ccccc12)c1ccccc1O       0.833
4  CS(=O)(=O)c1sc(C(=O)Sc2ccc(Cl)cc2)c2c1C=CCC2       0.841

Kindly give each listed record's normalized growth.
1. COc1cc(CC/C(C)=N/O)ccc1OCc1ccc(Cl)cc1Cl
2. COc1cc(CC/C(C)=N\O)ccc1OCc1ccc(Cl)c(Cl)c1
3. O=S(=O)(Nc1ccc(Oc2ccc(OC(F)(F)F)cc2)cc1)c1cccc(Cl)c1

[0.973, 0.97, 0.983]
